Target: T1, hAMY3R (human, UniProt P30988)
T1 sequence 1: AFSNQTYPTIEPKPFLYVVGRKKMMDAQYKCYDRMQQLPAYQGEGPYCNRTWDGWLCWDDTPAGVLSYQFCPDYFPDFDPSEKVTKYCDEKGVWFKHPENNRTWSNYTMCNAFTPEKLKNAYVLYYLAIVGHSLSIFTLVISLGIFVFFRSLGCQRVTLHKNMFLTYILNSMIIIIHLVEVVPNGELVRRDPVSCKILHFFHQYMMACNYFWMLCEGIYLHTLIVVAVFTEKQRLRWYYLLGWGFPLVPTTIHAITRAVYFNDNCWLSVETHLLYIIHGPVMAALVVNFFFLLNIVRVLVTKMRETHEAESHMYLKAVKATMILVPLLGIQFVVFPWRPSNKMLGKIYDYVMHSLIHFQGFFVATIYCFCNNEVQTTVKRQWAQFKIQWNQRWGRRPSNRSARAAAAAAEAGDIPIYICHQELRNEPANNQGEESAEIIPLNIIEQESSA
T1 sequence 2: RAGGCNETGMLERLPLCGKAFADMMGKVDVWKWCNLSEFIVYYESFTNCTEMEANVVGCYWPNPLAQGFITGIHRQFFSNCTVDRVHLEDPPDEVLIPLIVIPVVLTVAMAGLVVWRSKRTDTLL
Assay: cell-based or functional assay
Numbered stars: 1 amine (or outer) side, 2 acyl side, 3 side chain; on linkers, the order of the positions; unused ones are H or OH. Bridge positions count the residues as written; N and C are the ends. Square brackets hold non-standard residues; d marks the D form. * marks the point of attachment. C20 diacid = O=C(O)CCCCCCCCCCCCCCCCCCC(=O)*; γGlu = O=C(O)[C@H](CCC(=O)[*:2])N[*:1]; Hyp = O=C(O)[C@@H]1C[C@@H](O)CN1; Aib = CC(C)(N)C(=O)O
Kindly state hAMY3R EC50 (cAMP) for each of the entries shown.
Express the result in nM but write the number alone.

Request: Output measured hAMY3R EC50 (cAMP) for this item: {C20 diacid-γGlu}-KCNTATCTVARLAHQINQFTDKDKDPVAPPTNVGSNG[Hyp]-NH2 (disulfide 2-7 (inferred); ends not checked) [SEQ ID NO: 137]
Response: 0.034

Request: Output measured hAMY3R EC50 (cAMP) for this item: {C20 diacid-γGlu}-KCNT[Aib]TCTVQRLAHQIYQFTDKDKDNVAPPTNVGSNG[Hyp]-NH2 (disulfide 2-7 (inferred); ends not checked) [SEQ ID NO: 119]
Response: 0.024
